Assay: MTD (Maximum Tolerated Dose) determination, single iv administration
Type: in vivo
Settings: female, mouse, in vivo; mice; iv/SD (single dose); monitored up to 14 days
value.kind: MTD at 14 days (mg/kg)
Return type: number; implicit unit mg/kg.

COc1ccc2[nH]c3c(c2c1)C[C@H](CO)N[C@]31CS[C@@H]2c3c(OC(C)=O)c(C)c4c(c3[C@H](COC1=O)N1[C@@H]2[C@H]2c3c(cc(C)c(OC)c3O)C[C@@H]([C@@H]1O)N2C)OCO4    0.15

Okay, next one:
Q: State its MTD at 14 days: COc1ccc2[nH]c3c(c2c1)C[C@@H](CO)N[C@]31CS[C@@H]2c3c(OC(C)=O)c(C)c4c(c3[C@H](COC1=O)N1[C@@H]2[C@H]2c3c(cc(C)c(OC)c3O)C[C@@H]([C@@H]1O)N2C)OCO4
Result: 0.5

---

log10 GI50 values for the compounds below.
Test system: PSN1 cells (pancreas adenocarcinoma)
Test: cells
Settings: PSN1; 72 hours treatment; SRB
Lab note - GI50 converted to log10 from values in nM.

COc1c(C)cc2c(c1O)[C@@H]1[C@@H]3[C@@H]4SC[C@]5(N[C@H](CO)Cc6c5oc5ccccc65)C(=O)OC[C@@H](c5c6c(c(C)c(OC(C)=O)c54)OCO6)N3[C@@H](C#N)[C@H](C2)N1C [Compound 38-S]    0.70
COc1ccc2[nH]c3c(c2c1)C[C@@H](CN)N[C@]31CS[C@@H]2c3c(OC(C)=O)c(C)c4c(c3[C@H](COC1=O)N1[C@@H]2[C@H]2c3c(cc(C)c(OC)c3O)C[C@@H]([C@@H]1C#N)N2C)OCO4 [Compound 26-S]    0.48

Q: Enter log10 GI50 (test system PSN1 cells (pancreas adenocarcinoma)) for COc1ccc2oc3c(c2c1)CCN[C@]31CS[C@@H]2c3c(OC(C)=O)c(C)c4c(c3[C@H](COC1=O)N1[C@@H]2[C@H]2c3c(cc(C)c(OC)c3O)C[C@@H]([C@@H]1C#N)N2C)OCO4 [Compound 34]
Result: 1.73

Q: Enter log10 GI50 (test system PSN1 cells (pancreas adenocarcinoma)) for C=CCOC(=O)NC[C@@H]1Cc2c([nH]c3ccc(OC)cc23)[C@@]2(CS[C@@H]3c4c(OC(C)=O)c(C)c5c(c4[C@H](COC2=O)N2[C@@H]3[C@H]3c4c(cc(C)c(OC)c4O)C[C@@H]([C@@H]2C#N)N3C)OCO5)N1 [Compound 25-S]
Result: 0.84

Q: Enter log10 GI50 (test system PSN1 cells (pancreas adenocarcinoma)) for COc1ccc2[nH]c3c(c2c1)C[C@@H](C(=O)O)N[C@]31CS[C@@H]2c3c(OC(C)=O)c(C)c4c(c3[C@H](COC1=O)N1[C@@H]2[C@H]2c3c(cc(C)c(OC)c3O)C[C@@H]([C@@H]1C#N)N2C)OCO4 [Compound 28-S, reference compound]
Result: 2.40

Q: Enter log10 GI50 (test system PSN1 cells (pancreas adenocarcinoma)) for COc1c(C)cc2c(c1O)[C@@H]1[C@@H]3[C@@H]4SC[C@]5(N[C@H](C)Cc6c5[nH]c5ccccc65)C(=O)OC[C@@H](c5c6c(c(C)c(OC(C)=O)c54)OCO6)N3[C@@H](O)[C@H](C2)N1C [Compound C]
Result: 1.56

Q: Enter log10 GI50 (test system PSN1 cells (pancreas adenocarcinoma)) for COc1c(C)cc2c(c1O)[C@@H]1[C@@H]3[C@@H]4SC[C@]5(N[C@H](COC(C)=O)Cc6c5[nH]c5ccccc65)C(=O)OC[C@@H](c5c6c(c(C)c(OC(C)=O)c54)OCO6)N3[C@@H](C#N)[C@H](C2)N1C [Compound 3a-S]
Result: 0.33

Q: Enter log10 GI50 (test system PSN1 cells (pancreas adenocarcinoma)) for COc1ccc2[nH]c3c(c2c1)C[C@H](CN)N[C@]31CS[C@@H]2c3c(OC(C)=O)c(C)c4c(c3[C@H](COC1=O)N1[C@@H]2[C@H]2c3c(cc(C)c(OC)c3O)C[C@@H]([C@@H]1C#N)N2C)OCO4 [Compound 26-R]
Result: -0.01

Q: Enter log10 GI50 (test system PSN1 cells (pancreas adenocarcinoma)) for COc1c(C)cc2c(c1O)[C@@H]1[C@@H]3[C@@H]4SC[C@]5(NCCc6c5oc5ccccc65)C(=O)OC[C@@H](c5c6c(c(C)c(OC(C)=O)c54)OCO6)N3[C@@H](C#N)[C@H](C2)N1C [Compound 31]
Result: 0.83

---

CC50 values for the compounds below.
Tested on: HT29 cells (colorectal adenocarcinoma)
Test: cells
Details: read-out: LC50; HT29; 50% net cell killing; 72 hours; SRB

COc1c(C)cc2c(c1O)[C@@H]1[C@@H]3[C@@H]4SC[C@]5(N[C@H](COC(C)=O)Cc6c5[nH]c5ccccc65)C(=O)OC[C@@H](c5c6c(c(C)c(OC(C)=O)c54)OCO6)N3[C@@H](C#N)[C@H](C2)N1C    > 120 nM

Q: State its CC50: COc1c(C)cc2c(c1O)[C@@H]1[C@@H]3[C@@H]4SC[C@]5(NCCc6c5oc5ccccc65)C(=O)OC[C@@H](c5c6c(c(C)c(OC(C)=O)c54)OCO6)N3[C@@H](C#N)[C@H](C2)N1C
Result: > 131 nM

Q: State its CC50: COc1c(C)cc2c(c1O)[C@@H]1[C@@H]3[C@@H]4SC[C@]5(N[C@H](C)Cc6c5[nH]c5ccccc65)C(=O)OC[C@@H](c5c6c(c(C)c(OC(C)=O)c54)OCO6)N3[C@@H](O)[C@H](C2)N1C
Result: > 130 nM

Q: State its CC50: COc1c(C)cc2c(c1O)[C@@H]1[C@@H]3[C@@H]4SC[C@]5(N[C@H](C)Cc6c5[nH]c5ccccc65)C(=O)OC[C@@H](c5c6c(c(C)c(OC(C)=O)c54)OCO6)N3[C@@H](C#N)[C@H](C2)N1C [A, reference compound]
Result: > 129 nM

---

System: MDA-MB-231 cells (breast adenocarcinoma)
Assay: cells
Conditions: read-out: LC50; MDA-MB-231; 50% net cell killing; 72 hours; SRB
CC50 values for the molecules below.
Return type: number; implicit unit nM.

Example entries begin here.
COc1c(C)cc2c(c1O)[C@@H]1[C@@H]3[C@@H]4SC[C@]5(N[C@@H](C)Cc6c5[nH]c5ccccc65)C(=O)OC[C@@H](c5c6c(c(C)c(OC(C)=O)c54)OCO6)N3[C@@H](C#N)[C@H](C2)N1C [B, reference compound]    34.7
COc1ccc2[nH]c3c(c2c1)C[C@@H](CN)N[C@]31CS[C@@H]2c3c(OC(C)=O)c(C)c4c(c3[C@H](COC1=O)N1[C@@H]2[C@H]2c3c(cc(C)c(OC)c3O)C[C@@H]([C@@H]1C#N)N2C)OCO4    3.89

Okay, next one:
Q: Enter CC50 (test system MDA-MB-231 cells (breast adenocarcinoma)) for COc1ccc2oc3c(c2c1)CCN[C@]31CS[C@@H]2c3c(OC(C)=O)c(C)c4c(c3[C@H](COC1=O)N1[C@@H]2[C@H]2c3c(cc(C)c(OC)c3O)C[C@@H]([C@@H]1C#N)N2C)OCO4
Result: 112

---

System: HT29 cells (colorectal adenocarcinoma)
Assay: cells
Conditions: HT29; total cell growth inhibition; 72 hours; SRB
value.kind: TGI (Molar)
Return type: number; implicit unit Molar.

COc1c(C)cc2c(c1O)[C@@H]1[C@@H]3[C@@H]4SC[C@]5(NCCc6c5oc5ccccc65)C(=O)OC[C@@H](c5c6c(c(C)c(OC(C)=O)c54)OCO6)N3[C@@H](C#N)[C@H](C2)N1C [Compound 31]    1.57E−08
COc1c(C)cc2c(c1O)[C@@H]1[C@@H]3[C@@H]4SC[C@]5(N[C@@H](CO)Cc6c5oc5ccccc65)C(=O)OC[C@@H](c5c6c(c(C)c(OC(C)=O)c54)OCO6)N3[C@@H](C#N)[C@H](C2)N1C [Compound 38-R]    5.91E−10
COc1c(C)cc2c(c1O)[C@@H]1[C@@H]3[C@@H]4SC[C@]5(N[C@@H](C)Cc6c5[nH]c5ccccc65)C(=O)OC[C@@H](c5c6c(c(C)c(OC(C)=O)c54)OCO6)N3[C@@H](O)[C@H](C2)N1C [Compound D]    2.34E−08

Q: State its TGI: COc1ccc2oc3c(c2c1)CCN[C@]31CS[C@@H]2c3c(OC(C)=O)c(C)c4c(c3[C@H](COC1=O)N1[C@@H]2[C@H]2c3c(cc(C)c(OC)c3O)C[C@@H]([C@@H]1C#N)N2C)OCO4 [Compound 34]
Result: 8.55E−08

Q: State its TGI: COc1ccc2[nH]c3c(c2c1)C[C@H](CO)N[C@]31CS[C@@H]2c3c(OC(C)=O)c(C)c4c(c3[C@H](COC1=O)N1[C@@H]2[C@H]2c3c(cc(C)c(OC)c3O)C[C@@H]([C@@H]1C#N)N2C)OCO4 [Compound 18-R]
Result: 1.34E−09
